Molecular target: rat mGluR5 (Rattus norvegicus)
Construct: expressed in transfected cells; host or cells: HEK (human embryonic kidney) cells
Sequence (P31424 21-1203): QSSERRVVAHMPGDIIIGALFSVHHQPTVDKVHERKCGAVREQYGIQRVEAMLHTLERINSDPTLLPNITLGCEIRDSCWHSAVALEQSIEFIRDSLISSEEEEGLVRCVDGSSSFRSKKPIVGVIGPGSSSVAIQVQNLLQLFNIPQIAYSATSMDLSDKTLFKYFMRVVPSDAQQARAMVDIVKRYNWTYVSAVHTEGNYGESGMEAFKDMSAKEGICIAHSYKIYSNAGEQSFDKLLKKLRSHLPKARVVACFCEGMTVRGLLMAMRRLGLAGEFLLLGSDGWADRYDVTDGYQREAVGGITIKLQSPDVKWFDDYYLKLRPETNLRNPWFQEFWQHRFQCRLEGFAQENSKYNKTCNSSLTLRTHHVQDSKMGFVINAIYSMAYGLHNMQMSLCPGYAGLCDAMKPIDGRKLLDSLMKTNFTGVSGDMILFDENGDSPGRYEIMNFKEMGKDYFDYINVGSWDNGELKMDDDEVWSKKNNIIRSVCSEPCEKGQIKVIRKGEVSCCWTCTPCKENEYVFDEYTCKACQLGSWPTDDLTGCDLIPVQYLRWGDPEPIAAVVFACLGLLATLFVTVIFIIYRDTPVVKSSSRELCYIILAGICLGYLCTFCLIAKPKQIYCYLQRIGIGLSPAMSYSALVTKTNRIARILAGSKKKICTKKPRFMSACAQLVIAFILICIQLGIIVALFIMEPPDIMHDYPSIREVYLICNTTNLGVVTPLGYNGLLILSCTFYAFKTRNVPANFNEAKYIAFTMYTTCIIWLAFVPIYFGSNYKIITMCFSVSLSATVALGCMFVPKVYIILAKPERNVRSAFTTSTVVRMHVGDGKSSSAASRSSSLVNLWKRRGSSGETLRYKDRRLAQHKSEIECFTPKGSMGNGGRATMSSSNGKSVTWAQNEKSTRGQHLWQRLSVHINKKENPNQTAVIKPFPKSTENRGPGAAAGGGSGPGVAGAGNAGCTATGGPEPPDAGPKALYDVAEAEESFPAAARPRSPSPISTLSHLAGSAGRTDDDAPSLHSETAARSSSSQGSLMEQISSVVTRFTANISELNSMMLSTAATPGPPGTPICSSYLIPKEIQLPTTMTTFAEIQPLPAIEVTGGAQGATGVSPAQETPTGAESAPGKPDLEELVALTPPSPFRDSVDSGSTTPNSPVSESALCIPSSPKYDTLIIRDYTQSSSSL
Assay: Potentiation of glutamate response in HEK cells transfected with rat mGluR5 (Ca2+ fluorescence, FDSS)
Type: cell-based
Settings: HEK cells transfected with rat mGluR5; read-out: rmGlu5 PAM EC50
Metric: log10 EC50 (log10 of the value in nM)

>  <Compound>
O=C(Nc1ccccn1)c1ccc(COc2ccccc2)nc1

>  <Experimental target>
rat mGluR5 (Rattus norvegicus)

>  <log10 EC50>
3.72

$$$$
>  <Compound>
O=C(NC(C1CC1)C(F)(F)F)c1ccc(COc2cccc(F)c2)nc1 (stereo not shown)

>  <Experimental target>
rat mGluR5 (Rattus norvegicus)

>  <log10 EC50>
3.28

$$$$
>  <Compound>
O=C(NCC1CCCCC1)c1ccc(COc2ccccc2)nc1

>  <Experimental target>
rat mGluR5 (Rattus norvegicus)

>  <log10 EC50>
2.76

$$$$
>  <Compound>
C[C@@H](NC(=O)c1ccc(COc2cccc(F)c2)nc1)C1CCCCC1 [drawing 67]

>  <Experimental target>
rat mGluR5 (Rattus norvegicus)

>  <log10 EC50>
2.11

$$$$
>  <Compound>
O=C(Nc1nccs1)c1ccc(COc2ccccc2)nc1

>  <Experimental target>
rat mGluR5 (Rattus norvegicus)

>  <log10 EC50>
3.08

$$$$
>  <Compound>
C[C@@H](NC(=O)c1ccc(COc2cccc(F)c2)nc1)C1CCC1

>  <Experimental target>
rat mGluR5 (Rattus norvegicus)

>  <log10 EC50>
2.14

$$$$
>  <Compound>
O=C(NC1CCC1)c1ccc(COc2ccccc2)nc1

>  <Experimental target>
rat mGluR5 (Rattus norvegicus)

>  <log10 EC50>
3.67

$$$$
>  <Compound>
CC(C)[C@@H](C)NC(=O)c1ccc(COc2cccc(F)c2)nc1

>  <Experimental target>
rat mGluR5 (Rattus norvegicus)

>  <log10 EC50>
2.20

$$$$
>  <Compound>
C[C@@H](NC(=O)c1ccc(COc2ccccc2F)nc1)C1CCCCC1

>  <Experimental target>
rat mGluR5 (Rattus norvegicus)

>  <log10 EC50>
2.20

$$$$
>  <Compound>
C[C@@H](NC(=O)c1ccc(COc2ccccc2)nc1)C1CCCCC1 [drawing 69]

>  <Experimental target>
rat mGluR5 (Rattus norvegicus)

>  <log10 EC50>
2.16

$$$$
>  <Compound>
CC(C)(C)CCNC(=O)c1ccc(COc2cc(F)cc(F)c2)nc1

>  <Experimental target>
rat mGluR5 (Rattus norvegicus)

>  <log10 EC50>
3.20

$$$$
